- Test system: Enterococcus faecalis
- PROTOCOL: Antibacterial activity against vancomycin resistant Enterococcus faecalis BM4575 harboring VanE genotype, constitutive expression of Ddl and VanE D-Ala-D-Ser ligase assessed as reduction in bacterial growth incubated for 18 to 24 hrs by broth microdilution method
- Format: functional
- STUDY_CONDITIONS: time 18-24 hrs
REPORTED_ENDPOINT: MIC (µM)
Write the number in µM without appending the unit.

Q: I would be grateful if you could share the reported MIC for Oc1ccccc1-c1n[nH]c(=S)n1-c1ccc(Cl)c(Cl)c1 .
Ans: 400

Q: O=C(NC(=S)NNC(=O)c1ccccc1O)c1ccc(Cl)c(Cl)c1 , same question.
Ans: 50

Q: Oc1ccccc1/C=N/NC(=S)Nc1ccc(Cl)c(Cl)c1 , same question.
Ans: 6.25

Q: O=C(NNC(=S)Nc1ccc(C(F)(F)F)cc1)c1ccccc1O , same question.
Ans: 100
